Entries annotated with measured melting point
Where a name gives a salt, the structure may show the parent alone.

Recorded melting point for COc1ccccc1-c1cnc2ccc(N3C[C@H]4C[C@@H]3CN4C(=O)OC(C)C)nn12 (stereo in doubt) (as salt: hydrochloride) [Example 5.6.154] , please? 173 to 174 °C

Item: COc1ccccc1-c1cnc2ccc(N3CCN(C(=O)OC(C)C)CC3)nn12 (as salt: hydrochloride) [Example 5.6.115] 243 to 244 °C (dec.)

Item: `CC(C)(C)OC(=O)N1CCN(c2ccc3ncc(-c4ccccc4)n3n2)CC1` 101 to 103 °C (dec.)

Item: CC(C)OC(=O)N1CCN(c2ccc3ncc(Br)n3n2)CC1C (racemic) [Example 5.6.147] 144 to 145 °C

Item: `CCCCN(C)c1ccc2ncc(-c3ccc(CN)cc3)n2n1` 99 to 101 °C

Item: COc1ncccc1-c1cnc2ccc(N3CCN(C(=O)OC(C)C)CC3)nn12 (as salt: hydrochloride) [Example 5.6.151] 179 to 181 °C (dec.)

Item: COc1cnccc1-c1cnc2ccc(N3CCN(C(=O)OC(C)C)CC3)nn12 (as salt: hydrochloride) [Example 5.6.103] 217 to 218 °C (dec.)

Item: CC(C)OC(=O)N1CCN(c2ccc3ncc(-c4ccncc4)n3n2)CC1 (as salt: hydrochloride) [Example 5.6.108] 195 to 196 °C (dec.)

====

- experimental.target: AAK1 (Homo sapiens, UniProt Q2M2I8)
- Construct: HA; expressed in transfected cells; host or cells: HEK293F
- Sequence (Q2M2I8 1-863 isoform Q2M2I8-2): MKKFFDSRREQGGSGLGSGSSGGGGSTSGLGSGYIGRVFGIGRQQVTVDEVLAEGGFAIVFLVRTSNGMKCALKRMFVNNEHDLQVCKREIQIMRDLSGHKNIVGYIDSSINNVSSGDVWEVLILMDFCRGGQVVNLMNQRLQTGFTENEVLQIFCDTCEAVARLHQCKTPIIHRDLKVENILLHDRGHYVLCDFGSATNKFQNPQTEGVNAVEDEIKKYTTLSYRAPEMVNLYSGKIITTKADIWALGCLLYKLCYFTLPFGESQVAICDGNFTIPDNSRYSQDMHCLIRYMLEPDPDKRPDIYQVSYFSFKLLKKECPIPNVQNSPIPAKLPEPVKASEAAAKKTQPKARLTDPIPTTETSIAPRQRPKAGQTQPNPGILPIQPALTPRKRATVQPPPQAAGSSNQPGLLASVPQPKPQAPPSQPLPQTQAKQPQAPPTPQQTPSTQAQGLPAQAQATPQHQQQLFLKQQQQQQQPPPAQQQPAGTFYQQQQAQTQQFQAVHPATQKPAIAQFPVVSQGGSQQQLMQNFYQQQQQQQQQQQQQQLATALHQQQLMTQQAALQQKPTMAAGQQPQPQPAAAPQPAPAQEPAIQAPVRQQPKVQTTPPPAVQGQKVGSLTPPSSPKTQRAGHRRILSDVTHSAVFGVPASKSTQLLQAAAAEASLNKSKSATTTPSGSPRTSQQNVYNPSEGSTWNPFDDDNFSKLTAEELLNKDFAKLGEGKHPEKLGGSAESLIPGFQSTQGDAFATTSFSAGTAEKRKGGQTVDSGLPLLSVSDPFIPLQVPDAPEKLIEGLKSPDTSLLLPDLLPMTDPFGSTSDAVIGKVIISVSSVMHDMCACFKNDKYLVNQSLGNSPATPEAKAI
- experiment.description: HEK281 cell-based assay (phospho-mu2 Western blot in transfected HEK293F cells)
- conditions: 3 hours incubation, read-out: CBA IC50
pIC50: −log10 of the molar value.
readout: pIC50

>  <compound>
CCCNc1ccc2ncc(-c3ccc(C=O)s3)n2n1

>  <experimental.target>
AAK1 (Homo sapiens, UniProt Q2M2I8)

>  <pIC50>
≥ 6.00

$$$$
>  <compound>
CC(C)COCCNc1ccc2ncc(-c3ccc(C(=O)NCCN4CCCC4)cc3)n2n1

>  <experimental.target>
AAK1 (Homo sapiens, UniProt Q2M2I8)

>  <pIC50>
≥ 7.00

$$$$
>  <compound>
CCOC(=O)N(C)CCNc1ccc2ncc(-c3ccc(C(N)=O)cc3)n2n1

>  <experimental.target>
AAK1 (Homo sapiens, UniProt Q2M2I8)

>  <pIC50>
≥ 7.00

$$$$

Recorded pIC50 for `NCc1ccc(-c2cnc3ccc(NC[C@@H]4CCCO4)nn23)cc1` , please? ≥ 7.00

Item: `CC(=O)c1ccc(-c2cnc3ccc(NCCCN(C)C(=O)OC(C)(C)C)nn23)s1` ≥ 7.00

Item: `CCCCCNc1ccc2ncc(-c3ccc(CN)cc3)n2n1` ≥ 6.00

Item: `CC(C)(C)OC(=O)N1CCC[C@H]1CNc1ccc2ncc(-c3ccccc3)n2n1` ≥ 8.00

Item: CCCCNc1ccc2ncc(-c3ccc(CNCC4CCCO4)cc3)n2n1 (centres unmarked) ≥ 6.00

Item: `CC(C)OC(=O)N(C)[C@H]1CCN(c2ccc3ncc(-c4ccc(CN)cc4)n3n2)C1` ≥ 8.00

Item: `COc1cccc(-c2cnc3ccc(N4CCN(C(=O)OC(C)C)CC4)nn23)c1OC` ≥ 7.00

Item: `NCc1ccc(-c2cnc3ccc(NCCC4CCCCC4)nn23)cc1` ≥ 7.00

Item: `CCCCNc1ccc2ncc(-c3ccc(CNCCOC)cc3)n2n1` ≥ 6.00

Item: `CNCCNC(=O)c1ccc(-c2cnc3ccc(NCCCN(C)C(=O)C(C)(C)C)nn23)cc1` ≥ 6.00

Item: `COc1cc(F)ccc1-c1cnc2ccc(NCCN(C)C(=O)OC(C)C)nn12` ≥ 7.00

Item: `COC(=O)N1CCC[C@H]1CNc1ccc2ncc(-c3ccc(CN)cc3)n2n1` ≥ 7.00

Item: `COc1ccccc1-c1cnc2ccc(N3CCN(C(=O)N4CCCC4)CC3)nn12` ≥ 7.00

Item: `CC(C)(C)COC(=O)N1CCC[C@H]1CNc1ccc2ncc(-c3ccc(CN)cc3)n2n1` ≥ 8.00

Item: `NCc1ccc(-c2cnc3ccc(NCC4CCC4)nn23)cc1` ≥ 6.00

Item: `COc1ncc(F)cc1-c1cnc2ccc(N3CC[C@H](N(C)C(=O)OC(C)C)C3)nn12` ≥ 7.00

Item: `CCN(CC)CCNC(=O)c1ccc(-c2cnc3ccc(NCCOCC(C)C)nn23)cc1` ≥ 7.00

Item: `CC(C)(C)CNC(=O)N1CCC[C@H]1CNc1ccc2ncc(-c3ccccc3)n2n1` ≥ 7.00

Item: `CCOc1ccccc1-c1cnc2ccc(N3CCN(C(=O)OC(C)C)CC3)nn12` ≥ 7.00

====

- experimental.target: AAK1 (Homo sapiens)
- Construct: HA; expressed in transfected cells; host or cells: HEK293F
- experiment.description: HEK281 cell-based assay (phospho-mu2 Western blot in transfected HEK293F cells)
- conditions: 3 hours incubation, read-out: CBA IC50
Entries annotated with measured IC50

Recorded IC50 for `COc1cc(F)c(F)cc1-c1cnc2ccc(NCCN(C(=O)OC(C)C)C(C)C)nn12` , please? ≤ 100 nM

Item: `CC(C)(C)OCCCNc1ccc2ncc(-c3ccc(CN)cc3)n2n1` ≤ 100 nM

Item: `CN(CCNc1ccc2ncc(-c3ccc(C(N)=O)cc3)n2n1)C(=O)CC(C)(C)C` ≤ 100 nM

Item: `NCc1ccc(-c2cnc3ccc(NCCc4ccc(F)cc4)nn23)cc1` ≤ 1000 nM

Item: `CCCCNc1ccc2ncc(-c3ccc(C(=O)NCCN)c(F)c3)n2n1` ≤ 100 nM

====

Entries annotated with measured pIC50
- experimental.target: AAK1 (Homo sapiens)
- Construct: HA; expressed in transfected cells; host or cells: HEK293F
- experiment.description: P81 filter plate assay
- Format: biochemical
- conditions: full-length human AAK1, Mu2 substrate
pIC50: −log10 of the molar value.

Worked cases, answers included:
>  <compound>
O=C(N1CCCC1)N1CCN(c2ccc3ncc(-c4ccccc4)n3n2)CC1

>  <pIC50>
≥ 8.00

$$$$
>  <compound>
COCCO[C@H]1CCN(c2ccc3ncc(-c4cc(C)cnc4OC)n3n2)C1

>  <pIC50>
≥ 6.00

$$$$
>  <compound>
COc1ccccc1-c1cnc2ccc(N3CCC(N(C)C(=O)OC(C)(C)C)C3)nn12 (stereo not drawn)

>  <pIC50>
≥ 8.00

$$$$
>  <compound>
O=C(OC1CCCC1)N1CCC[C@H]1CNc1ccc2ncc(Br)n2n1

>  <pIC50>
≥ 8.00

$$$$
>  <compound>
N#Cc1cnc2ccc(NC[C@@H]3CCCN3C(=O)OC3CCCC3)nn12

>  <pIC50>
≥ 8.00

$$$$

API: value(readout= pIC50, system= AAK1 (Homo sapiens), query= `COc1ccccc1-c1cnc2ccc(NC[C@@H]3CCCN3C(=O)NC(C)(C)C)nn12` ) ≥ 8.00

Item: `COc1ncccc1-c1cnc2ccc(N3CC[C@H](O)C3)nn12` ≥ 6.00

Item: `CN(C(=O)OC(C)(C)C)[C@H]1CCN(c2ccc3ncc(Br)n3n2)C1` ≥ 8.00

Item: `c1cc(-c2cnc3ccc(NCCOC4CCCC4)nn23)n[nH]1` ≥ 7.00

Item: `CC(C)OC(=O)N1CCN(c2ccc3ncc(-c4ccccc4OC(F)F)n3n2)CC1` ≥ 8.00

Item: `CCOC(=O)N1CCN(c2ccc3ncc(C(=O)NC)n3n2)CC1` ≥ 7.00

Item: `O=C(OC1CCCC1)N1CCC[C@H]1CNc1ccc2ncc(-c3ccncc3)n2n1` ≥ 8.00

====

- experimental.target: AAK1 (Homo sapiens, UniProt Q2M2I8)
- Construct: HA; expressed in transfected cells; host or cells: HEK293F
- experiment.description: HEK281 cell-based assay (phospho-mu2 Western blot in transfected HEK293F cells)
- conditions: 3 hours incubation, read-out: CBA IC50
- Experimental: HEK293F cells were cultured in media containing DMEM (Gibco, cat. #11965), 10% FBS (SAFC Biosciences, cat. #12103C), 1×GPS (glutamine, penicillin and streptomycin). On day one, cells were plated on a 10 cm dish so that they are ˜80% confluent at time of transfection. Roughly 12 million cells were in a 10 cm dish at time of transfection. On day two, each dish was transfected with 48 ug DNA and 144 ul Lipofectamine 2000 (Invitrogen, cat.#11668-019). […]
pIC50: −log10 of the molar value.
readout: pIC50

Worked cases, answers included:
>  <compound>
[2H]C([2H])([2H])Oc1ncccc1-c1cnc2ccc(N3CC[C@H](N(C)C(=O)OCC)C3)nn12

>  <pIC50>
≥ 7.00

$$$$
>  <compound>
COc1cnccc1-c1cnc2ccc(N3CCN(C(=O)OC(C)C)CC3)nn12

>  <pIC50>
≥ 8.00

$$$$
>  <compound>
CC(C)OC(=O)N(C)CCNc1ccc2ncc(-c3ccc(C(N)=O)cc3)n2n1

>  <pIC50>
≥ 8.00

$$$$

Recorded pIC50 for `COc1ccc(F)cc1-c1cnc2ccc(N3CCN(C(=O)OC(C)C)CC3)nn12` , please? ≥ 8.00

Item: `NCc1ccc(-c2cnc3ccc(NCCCCF)nn23)cc1` ≥ 7.00
